Molecular target: MYCL1; also: reference of the scale not given here
Test: pooled miR-30 sensor sort-seq; sequence = guide strand
Details: shRNA
Readings of sensor-assay potency score (higher = more potent) for the listed sequences
# print the numeric value only

Some sequences with known sensor-assay potency score (higher = more potent) results, for comparison:
1. TTCTTCCAGATGTCCTCGCTGG | -0.137
2. TTCTTTTCTGCAACTGCTGCTG | -0.121
3. TCAATTTCTTCATTCTCCGAGT | 0.102

Request: I'd like to know its sensor-assay potency score (higher = more potent). The sequence in question is ATCAATTTCTTCATTCTCCGAG
Result: 0.219

Request: I'd like to know its sensor-assay potency score (higher = more potent). The sequence in question is TCATTCTCCGAGTCGCTTGGGC
Result: -0.392

The measured values listed here are drawn from the OligoGym collection.
